System: senescent A549 cells
Assay: Viability of senescent A549 cancer cells (CellTiter-Glo), Example 12
Format: cell-based, human
Details: 10 μM; 0 μM = 100
recorded_metric: Survival (%)

* Cc1nc(-c2nc(-c3ccc(OC(F)(F)F)cc3)no2)nn1Cc1cccc(N2CCC(S(C)(=O)=O)CC2)c1 | 61.6
* CCOC(=O)[C@@H](N)CCC(=O)N[C@@H](CSCc1ccccc1)C(=O)N[C@@H](C(=O)OCC)c1ccccc1 | 96
* C[N+](C)(C)CCO.C[N+](C)(C)CCO.[SH-].[SH-].[S]=[Mo]=[S] | 59.7
* CN(Cc1cnc2nc(N)nc(N)c2n1)c1ccc(C(=O)N[C@@H](CCC(=O)O)C(=O)O)cc1 [LX-2901, Methotrexate] | 90.4
* S=C(N/N=C1\CCCc2cccnc21)N1CCN(c2ccccn2)CC1 | 12.7

---

System: naturally aged C57BL6J mice
Test: Osteoclast marker mRNA (Ctsk, Ocstamp, Oscar, Rank, Trap) in femur of naturally aged mice, Example 21-14, Table 29
Format: in vivo, mouse
Conditions: left femur, untreated aged = 100%
recorded_metric: Ocstamp mRNA (%)

- CC1(C)CC[C@]2(NC(=O)C(C)(F)F)CC[C@]3(C)[C@H](C(=O)C=C4[C@@]5(C)C=C(C#N)C(=O)C(C)(C)[C@@H]5CC[C@]43C)[C@@H]2C1: 69 (±10.3) %
- O=C1C2CCN(CC2)C1CNC(=O)C(F)(F)F (stereo not shown): 70 (±6.7) %
- Cc1cccc([C@H](C)c2cnc[nH]2)c1C: 53 (±5.1) %
- CCCC\C=C/C=C/C=C\CCCCCCCC(=O)O: 73 (±3.2) %

---

Test system: senescent foreskin cells
Test: Survival of senescent human cells treated with supernatant (secreted fluid) from death-induced cells, Example 13
Assay type: cell-based
Settings: Table 8; supernatant from dying senescent cells treated at 30, 90 or 270 μM (as Example 11); senescent treated cells
Measured Survival, listed per entry.
recorded_metric: Survival

- CCn1c(C#CCNc2ccccc2)cc2cc(CNC)ccc21: 46.5
- O=C(NCc1ccncc1)C12CC3CC(C1)CC(c1ccc(Cl)cc1)(C3)C2: 72.6
- CC(=O)N[C@@H](Cc1c[nH]c2ccccc12)C(=O)N[C@@H](CCC(=O)C=[N+]=[N-])C(=O)OC(C)C: 55.2
- CN(Cc1cnc2nc(N)nc(N)c2n1)c1ccc(C(=O)N[C@@H](CCC(=O)O)C(=O)O)cc1 [LX-2901, Methotrexate]: 97.5

---

Measured Skin SDF1 mRNA, listed per entry.
System: naturally aged mice
Assay: Anti-aging evaluation in naturally aged mice, Example 31, Table 55;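 further: Vehicle-dosed control mice received solution alone at matching volume, values compare test-compound-treated aged mice against that control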
Type: in vivo, mouse
Details: skin, untreated = 1.0
recorded_metric: Skin SDF1 mRNA (fold)

- Cc1nc(-c2nc(-c3ccc(OC(F)(F)F)cc3)no2)nn1Cc1cccc(N2CCC(S(C)(=O)=O)CC2)c1: 1.6
- CCN(CC1C(=O)C2CCN1CC2)C(=O)C(Cl)(Cl)Cl (centres unmarked): 2.0
- CCc1nc(C(N)=O)c(Nc2ccc(N3CCC(N4CCN(C)CC4)CC3)c(OC)c2)nc1NC1CCOCC1: 1.7
- O=C(NCc1ccncc1)C12CC3CC(C1)CC(c1ccc(Cl)cc1)(C3)C2: 1.3
- C[C@@H](Nc1nc(N[C@H](C)C(F)(F)F)nc(-c2cccc(Cl)n2)n1)C(F)(F)F: 2.7
- [2H]C12CCN(CC1)C(CO)(COC)C2=O (centres unmarked): 1.6
- Cc1oncc1C(=O)Nc1ccc(C(F)(F)F)cc1 [LX-1603, Leflunomide]: 1.7
- CC1(C)[C@H]2COc3ccc4ccccc4c3[C@H]2N=C2SC(c3ccccc3)=C(c3ccccc3)N21: 2.3
